# Method Notes: viability loss of HPDE-C7K cells – cell-based, fluorescence, HTS, primary screen (AID 431);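 note: 0% = DMSO solvent wells and 100% = doxorubicin-treated wells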
# Condition Details: HPDE-C7K KRASV12 cells, Alamar Blue viability, 48 h; at 10 µM; hits give high values
Screen size: about 63,000 compounds; about 1,100 (1.7%) were called active. The full list was thinned out, with actives kept by preference. Potency and affinity values are given separately.
Just a reminder that ties go to not satisfied: only cytotoxicity strictly below 10% counts as satisfied.

Molecule	Label Class
CC1=Nn2c(nnc2C2CCCCC2)SC1	satisfied
CC1CCCN(S(=O)(=O)c2cccc(-c3cn4cccnc4n3)c2)C1 (stereo not drawn)	satisfied
CCc1nnc(NC(=O)CSc2nnc(-c3ccccc3O)n2-c2ccc(C)cc2C)s1	not satisfied
COc1ccc(Cl)cc1CN1CCN(c2nc(C)cc(C)c2C#N)CC1	not satisfied
OCc1ccnc2c(O)cccc12	not satisfied
COc1cccc(-c2nc(-c3ccc(NC(=O)c4cccnc4)cc3)no2)c1	not satisfied
O=C(CSc1nc(Nc2ccccc2)nc(N2CCOCC2)n1)N1CCCC1	satisfied
CCCCN1Cc2cc(C(=O)c3cc(F)ccc3O)cnc2NC1=O	satisfied
CCn1c(Cc2ccc(OC)cc2)nnc1SCC(=O)Nc1nc2ccccc2s1	satisfied
CCOC(=O)c1ccc(NC(=O)CCc2nc(-c3ccccc3)no2)cc1	satisfied
COc1ccc(Cc2nc(-c3ccc(NC(=O)c4cccnc4)cc3)no2)cc1	not satisfied
CC(C)c1ccc(NC(=O)C(c2ccccc2)N2CCN(C(=O)c3ccco3)CC2)cc1 (stereo not drawn)	satisfied
O=c1[nH]c2cc3c(cc2cc1CN(CCc1ccccc1)Cc1nnnn1C1CCCC1)OCCO3	satisfied
N#CC1=C2SCN(Cc3ccccc3)CN2C(=O)CC1c1cccs1 (stereo not drawn)	satisfied
CCc1nnc(NC(=O)CSc2nnc(-c3ccccc3OC)n2-c2ccccc2)s1	satisfied
O=C(CSc1nnc(-c2ccccn2)n1Cc1ccccc1)NC1CCCC1	satisfied
Oc1c(CN2CCN(c3ccccn3)CC2)cc(Cl)c2cccnc12	not satisfied
COc1ccc(C2CC(=O)N3C(=C2C#N)SCC3(O)c2ccccc2)cc1 (stereo not drawn)	not satisfied
O=c1c2c3c(sc2ncn1/N=C/c1ccco1)CCCC3	satisfied
CCOC(=O)c1ccc(NC(=O)CCc2nc(-c3ccc(Cl)cc3)no2)cc1	satisfied
CCc1nnc(NC(=O)CSc2nnc(-c3ccccc3O)n2-c2ccc(C)cc2)s1	satisfied
O=C(Nc1ccc(-c2noc(-c3cccs3)n2)cc1)c1cccnc1	not satisfied
CC(Oc1ccc(Cl)cc1Cl)c1nc(-c2ccc(NC(=O)c3cccnc3)cc2)no1 (stereo not drawn)	not satisfied
CCOc1ccc(N2CC(C(=O)Nc3cccc(C)c3C)CC2=O)cc1 (stereo not drawn)	not satisfied
CCN(c1ccccc1)S(=O)(=O)c1ccc(C(=O)Nc2nnc(COC)o2)cc1	not satisfied
CCc1ccc(C2CC(=O)N3CN(c4ccccc4)CSC3=C2C#N)cc1 (stereo not drawn)	satisfied
C=CCn1c(SCC(=O)Nc2c(C)cccc2C)nnc1-c1cnccn1	satisfied
CN(C)c1oc(-c2ccc(OCc3ccccc3)cc2)nc1C#N	satisfied
Cn1c(=O)c2c(nc(Oc3ccc4c(c3)OCO4)n2Cc2ccc(Cl)cc2)n(C)c1=O	not satisfied
OCCNCC(O)Cn1ccc2ccccc21 (stereo not drawn)	satisfied
CCn1c(SCC(=O)Nc2nc(-c3ccccc3)cs2)nnc1-c1ccccc1O	not satisfied
COc1ccc(-c2cc(=O)[nH]c(NCc3ccccc3)n2)cc1	satisfied
CCOC(=O)c1ccc(NC(=O)CCc2nc(-c3ccccc3Cl)no2)cc1	not satisfied

---

# Method Notes: viability loss of HPDE-C7K cells – cell-based, fluorescence, HTS, primary screen (AID 431);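 note: 0% = DMSO solvent wells and 100% = doxorubicin-treated wells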
# Condition Details: HPDE-C7K KRASV12 cells, Alamar Blue viability, 48 h; at 10 µM
Screen size: about 63,000 compounds; about 1,100 (1.7%) were called active.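 Rule for the calls: active = compounds whose percent cytotoxicity in the single-dose primary screen, scaled between solvent and toxic-drug controls, exceeds 50; inactive = the rest.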 The sample as a whole holds a higher share of actives than the screen did. Results with a measured potency or affinity are listed apart.
Outcomes: 1.0 = active, 0.0 = inactive

Molecule	Label Class
Nc1cccc(-c2nc3ccc(N)cc3s2)c1	1.0
CCOC(=O)N1CCC(NC(=O)c2cc(C(=O)Nc3cccc(OC)c3)ccc2CO)CC1	0.0
O=C(COc1ccccc1Br)NCc1ccco1	0.0
Cc1cc(-c2ccccc2)nc(=O)[nH]1	0.0
Cc1oc2cc(O)ccc2c(=O)c1-c1cnn(-c2ccccc2)c1	0.0
Oc1cccc(-c2nc3ccccc3s2)c1	0.0
CCCCNC(=O)c1c(N)n(/N=C/c2cccnc2)c2nc3ccccc3nc12	0.0
N#CCCN(CCC#N)C(=O)c1ccc2c(c1)OCO2	0.0
COc1ccc(C(=O)CSc2nnc(-c3ccoc3C)n2CC2CCCO2)cc1 (stereo unspecified)	0.0
COc1ccc(OCCCC(=O)Nc2ccc3c(c2)OCCO3)cc1	0.0
CCn1c(SCC(=O)Nc2ccc(C(=O)OC)cc2)nnc1-c1cccs1	0.0
CC(C)(C)c1ccc(OCC(=O)NCc2ccco2)c(Br)c1	1.0
O=C(Cn1cc2c(n1)CCCCC2)N1CCCCC1	0.0
CCOC(=O)C1CCCN(S(=O)(=O)Cc2ccccc2)C1 (stereo unspecified)	0.0
CCOc1ccc(/C(O)=C2\C(=O)C(=O)N(CCN(C)C)C2c2cc(OC)ccc2OC)cc1Cl (stereo unspecified)	0.0
CCCC(c1nnnn1CC1CCCO1)N1CCN(c2cc(Cl)ccc2C)CC1 (stereo unspecified)	1.0

---

cytotoxicity values by entry
# Method Notes: viability loss of HPDE-C7K cells – cell-based, fluorescence, HTS, primary screen (AID 431);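 note: 0% = DMSO solvent wells and 100% = doxorubicin-treated wells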
# Condition Details: HPDE-C7K KRASV12 cells, Alamar Blue viability, 48 h; at 10 µM; hits give high values
Screen size: about 63,000 compounds; about 1,100 (1.7%) were called active. For the sample, actives were picked, then their nearest neighbours and some compounds at random. Entries with a potency or affinity are not part of this list.

Molecule	cytotoxicity (%)
CC(Oc1ccc(Cl)cc1)C(=O)Nc1nccs1 (stereo unspecified)	-6
CC(=O)N1CCN(c2ccc(Nc3nc(C)nc4c3oc3ccccc34)cc2)CC1	-3.4
Cc1ccc(-n2c(=O)c(C#N)cc3c(=O)n4ccccc4nc32)cc1	69.7
Cn1c(SCc2cc(=O)n3cc(Br)ccc3n2)nnc1C1COc2ccccc2O1 (stereo unspecified)	-2.9
Cc1nc(SCC(=O)N2CCCc3ccccc32)c2oc3ccccc3c2n1	-19.9
CCNc1nc(CC)nc2c1oc1ccccc12	-17.1

---

cytotoxicity values by entry
# Method Notes: viability loss of HPDE-C7K cells – cell-based, fluorescence, HTS, primary screen (AID 431);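 note: 0% = DMSO solvent wells and 100% = doxorubicin-treated wells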
# Condition Details: HPDE-C7K KRASV12 cells, Alamar Blue viability, 48 h; at 10 µM; hits give high values
Screen size: about 63,000 compounds; about 1,100 (1.7%) were called active. The entries come from a sample that favours actives as a whole. Potency and affinity values are given separately.
Assay Endpoint: cytotoxicity (%)

Compound	Assay Endpoint	Unit Label	Recorded Result
COCCOC(=O)C1=C(C)NC2=C(C(=O)CCC2)C1c1ccc(N(C)C)cc1 (stereo not given)	cytotoxicity	%	3
COC(=O)c1ccc(C2C(C#N)=C(N)Oc3cc(C)n(C)c(=O)c32)cc1 (stereo not given)	cytotoxicity	%	-10.1
CCNc1sc(C(=O)c2cccs2)c(N)c1-c1nc2ccccc2s1	cytotoxicity	%	74.9
CCN(CC)S(=O)(=O)c1ccc(N2CCCC2)c(C(=O)OCC(=O)/C(C#N)=C(\C)N)c1	cytotoxicity	%	10.5
COc1ccc(C(C)(C)C)cc1NC(=O)Nc1ccc2c(c1)OCO2	cytotoxicity	%	50.7
O=C(O)CC(CNS(=O)(=O)c1ccccc1)c1ccccc1 (stereo not given)	cytotoxicity	%	0
Cc1sc(NC(=O)c2ccco2)c(C(c2cccnc2)N2CCN(c3ccc(F)cc3)CC2)c1C (stereo not given)	cytotoxicity	%	1.9
Cn1c(NC(=O)c2cccnc2)nc2ccccc21	cytotoxicity	%	0.4
Cc1sc(NC(=O)c2ccco2)c(C(c2ccncc2)N2CCOCC2)c1C (stereo not given)	cytotoxicity	%	-8.8
CCOC(=O)C1CCN(C(c2cccnc2)c2c(NC(=O)c3ccco3)sc(C)c2C)CC1 (stereo not given)	cytotoxicity	%	82.5

---

# Method Notes: viability loss of HPDE-C7K cells – cell-based, fluorescence, HTS, primary screen (AID 431);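 note: 0% = DMSO solvent wells and 100% = doxorubicin-treated wells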
# Condition Details: HPDE-C7K KRASV12 cells, Alamar Blue viability, 48 h; at 10 µM; hits give high values
Hit rate of the full screen: of about 63,000 compounds, about 1,100 (1.7%) were called active. For the sample, actives were picked, then their nearest neighbours and some compounds at random. Results with a measured potency or affinity are listed apart.

Molecule	cytotoxicity [%]
Oc1ccc2ccccc2c1C=NC12CN3CCN(CN(C3)C1)C2	0.4
Cc1nc(NCCCN2CCOCC2)c2oc3ccccc3c2n1	6.7
CCN1CCCC1CNc1ncnc2c1[nH]c1ccc(Cl)cc12 (centres undefined)	10.9
Cn1c(C(=O)N2CCN(c3ncccn3)CC2)cc2c(=O)n(C)c3ccccc3c21	17.4
Cc1nnc2sc(-c3cccc(NC(=O)c4ccc(-c5cccc(Cl)c5)o4)c3)nn12	-2.2
CCN(CC)CCNc1nc(-c2ccco2)c2c(c1C#N)CC(C)(C)OC2	-15.7
O=C(c1cccc(-c2nnc(-c3ccccc3)o2)c1)N1CCCCC1	14
CCOC(=O)C1=C(N)n2c(s/c(=C\c3cccnc3)c2=O)=C(C(=O)OC)C1c1cccnc1 (centres undefined)	-15.5
CCCn1nnnc1SCC(=O)c1ccc(NC(C)=O)cc1	-3.8
Cc1cccc(-n2c(Cc3cc(=O)[nH]c(=O)[nH]3)nnc2SCC(=O)NCc2ccco2)c1	-4.5
CCOC(=O)C1=C(N)n2c(s/c(=C\c3cccnc3)c2=O)=C(C(=O)OCC)C1c1cccnc1 (centres undefined)	-18.8
CCC(=O)c1ccccc1OCCCN1C(=O)NC(C)(C)C1=O	21
CCC(Sc1nc2cc3c(cc2c(=O)n1Cc1ccco1)OCO3)C(=O)Nc1ccccc1OC (centres undefined)	-11.9
CC1=C(C(=O)OC(C)C)C(c2ccccn2)n2ncnc2N1 (centres undefined)	5.9
N#CC(C(=O)NC1CCCCC1)c1nc2ccccc2nc1N1CCCCC1 (centres undefined)	-0.2
O=C(NCCCc1ccccc1)c1ccccc1O	-6.1
CCCCCOC(=O)c1[nH]c2c(c1C)C(=O)CC(c1ccco1)C2 (centres undefined)	51.4
COCCn1c(=S)[nH]c2cc(C(=O)N3CCN(c4ccccc4OC)CC3)ccc2c1=O	6.7
COc1cc(-c2nnc(COc3ccc4ccccc4c3)o2)cc(OC)c1OC	36.9
Cc1c(NC(=O)COC(=O)c2cc3c4ccccc4n(C)c3s2)c(=O)n(-c2ccccc2)n1C	19.8
Cc1cccc(OCCCN2CCCCCC2)c1	18.4
COC(=O)c1coc(-c2ccc(C)cc2)c1C(=O)OC	-19.4
COc1cc(-c2ccccc2)nc(N)n1	7.6
Cc1ccc2c(c1)c1c3n2CCN(C(=O)CN2CCN(C)CC2)C3CCC1 (centres undefined)	42.5
CCOc1ccccc1OCC(=O)Nc1ccc(S(=O)(=O)N(C)C)cc1	3.1
COc1ccc(NS(=O)(=O)c2ccc3oc4ccccc4c3c2)cn1	35.2
c1ccc2c(c1)[nH]c1c(NCC3CCCO3)ncnc12 (centres undefined)	6.1
O=C(OCc1nnc(-c2ccccc2)o1)c1ccc2c(c1)OCCO2	5.4
Cc1cccc(OCCn2c(=O)n(C)c3ccccc32)c1	2.1
COc1ccc(-c2cc(-c3ccccc3O)[nH]n2)cc1OC	61.1
OC1CCN(Cc2cccc(Oc3ccccc3)c2)CC1	20.9
COc1ccc(OC)c2[nH]c(=O)c(CCNC(=O)CC(C)C)cc12	-6.6
C/C(=N\O)C(=O)C(CN1CCCCC1)CN1CCCCC1	-6.8
Oc1ccc2ccccc2c1/C=N/n1cnnc1	18.6

Values from PubChem BioAssay AID431
